test system: SNB-19 CNS
Can you answer with just one of these options? active, inactive

Below are worked cases with known answers.
| compound | label |
| --- | --- |
| Cc1ccc(-c2c3c(nn2-c2ccc(S(=O)(=O)NC(=O)Nc4ccccc4)cc2)-c2ccccc2C3)cc1 | inactive |
| CCCOC(=O)c1ccc2c(c1)[N+](=O)C(C(=O)c1ccccc1)=C(C(F)(F)F)[N+]2=O | inactive |
| O=C(Nc1ccc(OCc2nnc(-c3ccc(Cl)cc3)o2)c(F)c1)Nc1ccc(Cl)c(Cl)c1 | inactive |
| CC(=O)O[C@H]1C(=O)[C@@]2(C)[C@H]([C@H](OC(=O)c3ccccc3)[C@]3(O)C[C@H](OC(=O)[C@H](OC(=O)OC[C@@H]4COC(C)(C)O4)[C@@H](NC(=O)c4ccccc4)c4ccccc4)C(C)=C1C3(C)C)[C@]1(OC(C)=O)CO[C@@H]1C[C@@H]2O | active |
| COc1ccc(/C(COc2ccc3c(c2)oc(=O)c2cc(OC)ccc23)=N/O)cc1 | inactive |

Data request: Record request — test call for CCOC(=O)c1ccc2c(c1)c1c(C)c3cnccc3c(C)c1n2C
Data returned: active

Data request: Record request — test call for Cn1cc(C2=C(c3cn(C)c4ccc(OCc5ccccc5)cc34)C(=O)NC2=O)c2ccccc21
Data returned: inactive

Data request: Record request — test call for Cc1cc2nc3c4cc(C=O)ccc4n(CCN(C)C)c3nc2cc1C
Data returned: inactive

Data request: Record request — test call for CC(C)OC(=O)Nc1ccc(-c2nc(-c3cccc(OCCN4CCOCC4)c3)c(-c3ccnc(Br)c3)[nH]2)cc1
Data returned: inactive

Data request: Record request — test call for C=CCSSC1N=CNc2nc[nH]c21 (stereo not given)
Data returned: inactive

---

Entries and their TGI
tested on: M14 melanoma; test: NCI tumour cell line growth inhibition, 48 h

Take a look at these entries with their results.
| molecule | TGI |
| --- | --- |
| COc1ccccc1NCc1nnc(CCCCCCCCc2nnc(CNc3ccccc3OC)o2)o1 | > 100 µM |
| Nc1nonc1-c1nc2cnccc2n1C1CCCCC1 | > 25 µM |

Data request: Consider the molecule shown here: Cn1c(N)c(Cc2ccc(Cl)cc2)c(=O)[nH]c1=O What is its recorded TGI?
Data returned: > 100 µM

Data request: Consider the molecule shown here: Brc1ccc2c(C3CN[C@@H](c4c[nH]c5cc(Br)ccc45)CN3)c[nH]c2c1 (stereo partly specified) What is its recorded TGI?
Data returned: 9.6 µM

Data request: Consider the molecule shown here: Clc1nc(Cl)c2ncn(CC#CCn3cnc4c(Cl)nc(Cl)nc43)c2n1 What is its recorded TGI?
Data returned: 5.62 µM

Data request: Consider the molecule shown here: c1ccc2c(c1)CN1CCCC1CN2 (stereo unspecified) What is its recorded TGI?
Data returned: > 100 µM

---

Entries and their TGI
test system: T-47D breast; assay: NCI tumour cell line growth inhibition, 48 h
Where a SMILES comes first, the peptide text is derived from it. Bridges are numbered along the chain shown (N, C = ends). [ ]: non-standard residue; d: D form. The star is where a group is joined. Cya = N[CH](CS(=O)(=O)O)C(=O)O; X49 = CC(C)CCCCCCCC(O)CC(=O)*; GABA = NCCCC(=O)O

Take a look at these entries with their results.
| compound | result |
| --- | --- |
| CC(C)OC(=O)Nc1ccc(-c2nc(-c3cccc(OCCN4CCOCC4)c3)c(-c3ccnc(Br)c3)[nH]2)cc1 | > 100 µM |
| C=C1C(=O)c2sccc2C(c2ccc(OC)c(OC)c2)C1COC(C)=O (configuration not stated) | 5.77 µM |
| COc1cc(Nc2nc3c(N)cc(C(F)(F)F)cc3nc2-c2ccccc2)cc(OC)c1OC | > 83 µM |
| NS(=O)(=O)c1ccc(N=Nc2ncccc2O)cc1 | > 100 µM |
| CCOP(=O)(OCC)OC1c2[nH]ccc2-c2cc(C(=O)OC)[nH]c2C1OC (configuration not stated) | > 100 µM |

Data request: # query: TGI | item CC(C)CCCCCCCC(O)CC(=O)NC(CS(=O)(=O)O)C(=O)NC(CC(C)C)C(=O)NCCCC(=O)NC(Cc1cnc[nH]1)C(=O)NC(C)C(=O)NC1C(=O)NC(C(C)O)C(=O)NC(Cc2cnc[nH]2)C(=O)NC(C)C(=O)NC(C(C)O)C(=O)OC1C (configuration not stated) (X49-[Cya]L[GABA]HATTHAT; ester 6-C; configuration not given here) | system: T-47D breast
Data returned: > 25 µM

Data request: # query: TGI | item C#Cc1nc(N)c2ncn(C3OC(COS(N)(=O)=O)C(O)C3O)c2n1 (configuration not stated) | system: T-47D breast
Data returned: < 0.01 µM
